Each record here notes measured melting point.

Consider the reported melting point for these compounds:
- COc1ccc(N2CCN(Cc3n[nH]c4c3CCc3ccccc3-4)CC2)cc1: 207 to 208 °C
- N#Cc1cccc(NC(=O)c2cc(-c3ccc(F)cc3F)ccc2O)c1: 229 to 230 °C
- CCCCc1nc(CO)c(Sc2ccccc2)n1Cc1ccc(-c2ccccc2C(=O)O)cc1: 220 °C

Task: GET /values?readout=melting point&item= OC1CCc2oc3c(Cl)cc(Br)cc3c2C1 (single isomer, unassigned; (-))
Output: 236 to 240 °C

Task: Next compound: Cn1nnnc1Cc1ccc(N)cc1
Output: 104 to 105 °C

Task: Next compound: CCCCC1SCC(C(=O)OC(C)(C)C)N1C(=O)CNC(=O)NCC(C(=O)O)c1ccccc1 (stereo not given)
Output: 102 °C

Task: Next compound: O=S(=O)(NCCO)c1cccc(-c2cccc(-c3nc(-c4ccc(C(F)(F)F)cc4)cc(C(F)(F)F)n3)c2)c1
Output: 153 °C

Task: Next compound: CC(=O)Nc1cnc2c(NC(=O)c3c(Cl)cccc3Cl)cccc2c1
Output: 244 to 245 °C

Task: Next compound: CC(O)c1ccccc1N (stereo not given)
Output: 50 to 52 °C

* * *

Each record here notes measured melting point.

Consider the reported melting point for these compounds:
• O=C(O)CNC(=O)NC(CS)Cc1ccccc1 (single isomer, unassigned; (+)) = 110 °C
• COc1ccc(-c2oc(C(=O)O)cc(=O)c2O)cc1 = 258 to 260 °C
• O=C(CC(=O)c1ccc(O)cc1O)c1cc(OCc2ccccc2)cc(OCc2ccccc2)c1 = 179 to 181 °C

Task: GET /values?readout=melting point&item= Cc1c(-c2ccc(O)cc2)n(Cc2ccc(OCCN3CCCCCCC3)cc2)c2ccc(O)cc12
Output: 98 to 102 °C

Task: Next compound: CC1(C)Oc2ccc(C#N)cc2C(Oc2ccc(O)nn2)C1(C)O (stereo not drawn)
Output: 131 to 134 °C

Task: Next compound: O=C(c1ccccc1)c1ccc(-c2nc(COc3cccc(CCCn4ccnc4)c3)co2)cc1
Output: 97 to 98 °C

Task: Next compound: CC1=C(C(=O)OCCOc2ccc(C(=O)c3ccccc3)c(O)c2)CC(C(=O)OCCOc2ccc(C(=O)c3ccccc3)c(O)c2)=C(C)N1
Output: 188 °C

Task: Next compound: CC(=O)NC[C@H]1CN(c2ccc(-n3nccc3-c3ccc(Br)cn3)c(F)c2)C(=O)O1
Output: 92.7 to 95.4 °C

* * *

Each record here notes measured melting point.

- CSC1C(OC(C)=O)C(COC(C)=O)OC1n1ccc(=O)[nH]c1=O (configuration not stated): 132 °C
- N#Cc1ccc2[nH]nc(-c3ccccc3)c2c1: 150 to 151 °C
- Cc1[nH]cc2c1-c1ccc(Cl)cc1C(c1ccccc1Cl)=NC2: 219 to 222 °C
- COc1cc2ncc(C#N)c(Nc3cccc(C(F)(F)F)c3)c2cc1OC: 190 to 193 °C
- Cc1nc(N)c2nc(C)n(CCNC(=O)N3CCOCC3)c2c1C: 219 to 221 °C
- CC(C)(C#N)Cc1ccc(-c2ccc(CC(C)(C)C#N)cc2)cc1: 174 to 182 °C
- CCC(N)=C(C(C)=O)c1[nH]c2ccccc2c1C(O)CN(C)C (configuration not stated): 90 to 104 °C
- Nc1cc(OCC2CCCCO2)c(C(=O)O)cc1Cl (configuration not stated): 146 to 148 °C

Task: GET /values?readout=melting point&item= Fc1ccc(F)c(CN2CCNc3ncc(I)cc32)c1
Output: 175 °C

Task: Next compound: CCN(CC(OC)OC)C(=O)Nc1ccc(C(O)(C(F)(F)F)C(F)(F)F)cc1
Output: 138 to 140 °C

* * *

Each record here notes measured melting point.

Task: GET /values?readout=melting point&item= COC(=O)c1c(C)c(OC)cc(OC)c1C=O
Output: 164 to 165 °C

Task: Next molecule: COc1cc(C(=O)N2CCN(C(=O)C3=Cc4cc(C)c(C)cc4OCC3)CC2)cc(OC)c1OC
Output: 177 to 178 °C

Task: Next molecule: CCCCCN1C(=O)C2(COc3cc4c(cc32)OCO4)c2ccccc21 (stereo not given)
Output: 85 to 87 °C

Task: Next molecule: Clc1ccc(-c2ncsc2Cn2cncn2)c(Cl)c1
Output: 120 to 123 °C

Task: Next molecule: CCN1CCO[C@]2(C)c3cccc4[nH]cc(c34)C[C@@H]12 (relative stereo)
Output: 129 to 130 °C

* * *

measurement type: melting point

- O=C1c2ccccc2C(=O)N1CCCCSc1nccc(NC(=S)NCC(F)(F)F)n1: 201 to 202 °C
- CN(C)c1ccc(C2(CNC(=O)Nc3ccccc3CCc3cc(C(C)(C)C)c(O)c(C(C)(C)C)c3)CCCC2)cc1: 174 to 175 °C

Task: GET /values?readout=melting point&item= COC(=O)c1cc(C(=O)c2c(C)c(NC(=O)c3cccc(O)c3)c3ccccn23)ccc1N
Output: 278 °C

Task: Next compound: CCCCNC(=O)NS(=O)(=O)c1cccc2c1CCCC2
Output: 173 to 175 °C

Task: Next compound: CC(=O)CC(=O)NC1CC(C)(C)NC(C)(C)C1
Output: 115 °C

Task: Next compound: COC(=O)/C(=C/c1ccc(OC)c(OC2CCCC2)c1)CC(=O)O
Output: 119 to 121 °C

* * *

measurement type: melting point

• CC1(C)OC(=O)Nc2ccc(-c3cccc(C#C[Si](C)(C)C)c3)cc21 = 240 to 242 °C
• CSc1nc2nsc(N)c2s1 = 160 to 166 °C
• ClCOc1ccc(Cl)cc1Br = 56 to 57.5 °C
• CN1C(C)(C)CC(O[Si](c2ccccc2)(c2ccccc2)c2ccccc2)CC1(C)C = 109 to 110 °C

Task: GET /values?readout=melting point&item= CC(CCN1CCCCC1)CC(=O)NNC(=O)N1Cc2ccccc2Oc2ccc(Cl)cc21 (stereo not given)
Output: 108 to 111 °C

Task: Next molecule: COc1cc(C=O)ccc1OCC(=O)NCCO[N+](=O)[O-]
Output: 117 to 120 °C

Task: Next molecule: Brc1ccc(OCCCCCCN2CCN(c3nccs3)CC2)cc1
Output: 66 to 68 °C

Task: Next molecule: CCOC(=O)C(Cc1ccc(Cl)cc1SCc1ccc(OC)cc1)(CC(C)C)C(=O)OCC
Output: 95 to 97 °C

Task: Next molecule: CCOC(=O)N1C(=O)NC(=O)C12C(=O)N(Cc1ccc(Cl)c(Cl)c1)c1ccccc12 (stereo not given)
Output: 192 to 194 °C

Task: Next molecule: CSc1cc(C)nc(O)n1
Output: 165 °C

Task: Next molecule: Fc1ccc(-c2cccc(F)n2)cc1
Output: 34 °C

Task: Next molecule: COc1ccccc1CNc1nc(Cl)nc2c1ncn2[C@@H]1SC[C@@H](O)[C@H]1O
Output: 188 °C

Task: Next molecule: O=c1c(N2CCNCC2)nc2ccc(F)cc2n1-c1ccccc1
Output: 142 to 143 °C

* * *

Each record here notes measured melting point.

Consider the reported melting point for these molecules:
* CC(C)[C@@H](CO)C[C@H](O)[C@H](CC1CCCCC1)NC(=O)OCc1ccccc1 | 113 to 114 °C
* CCC(=O)Nc1nc2cccc(C)c2c(=O)o1 | 108 to 109 °C

Task: GET /values?readout=melting point&item= Cc1ccc(S(=O)(=O)N2[C@@H](c3nn[nH]n3)CC[C@H]2c2ccc(F)cc2)cc1 (racemic)
Output: 150 °C

Task: Next molecule: COc1ccc(OCCO)c(C=O)c1
Output: 68 to 72 °C

Task: Next molecule: CNc1nc(Nc2ccc(Cl)c(CNC(=O)OC(C)(C)C)c2)ncc1[N+](=O)[O-]
Output: 195 °C

Task: Next molecule: CN(C)CCCn1c(-c2ccccc2)cc2c1CCS(=O)(=O)C2
Output: 123 to 125 °C

* * *

Each record here notes measured melting point.

• O=C(c1cc(Cl)c(Cl)cc1NS(=O)(=O)c1cccc2nsnc12)N1CCCCC1 = 178 to 179 °C
• CCOC(=O)c1cccc(C#CC2(O)CN3CCC2CC3)c1 (stereo not given) = 155 to 156 °C
• O=C1CCN(Cc2cc([N+](=O)[O-])ccc2O)CC1C(c1ccc(F)cc1)c1ccc(F)cc1 (stereo not given) = 169 to 170 °C
• Oc1ccc2c(c1)C13CCCCC1N(C2)NCC3 (single isomer, unassigned; (-)) = 244 to 246 °C

// switching to the query molecule
Task: GET /values?readout=melting point&item= COC(=O)C1CC(=NO)c2c(Cl)cc(Cl)cc2N1 (stereo not given)
Output: 216 to 217 °C

* * *

measurement type: melting point

Consider the reported melting point for these molecules:
* Nc1ccc(NCCO)c(C(F)(F)F)c1 | 74 to 75 °C
* O=C(O)C(=O)c1ccc(OCCOc2ccccc2F)cc1 | 108 to 110 °C
* CCOC(=O)COc1cc2c(c(Cl)c1Cl)C(=O)C(CC)=C2 | 141 to 143 °C
* CCCCCCCC(=O)OC1CC(=O)NC1=O (stereo unspecified) | 60.5 to 61 °C
* N#CSc1ccc(C=O)cc1 | 82 to 83 °C

// switching to the query molecule
Task: GET /values?readout=melting point&item= CN1C(=O)C(NC(=O)Nc2cccc(Cl)c2)N=C(c2ccccc2)c2ccccc21 (stereo unspecified)
Output: 178 to 180 °C
